This section presents compounds with their documented EC50 values.
Target: [MCL-1]-[compound of formula (I)]-[CRBN/DDB1] complex (Homo sapiens, UniProt Q07820+Q96SW2)
Sequence (Q07820 whole entry): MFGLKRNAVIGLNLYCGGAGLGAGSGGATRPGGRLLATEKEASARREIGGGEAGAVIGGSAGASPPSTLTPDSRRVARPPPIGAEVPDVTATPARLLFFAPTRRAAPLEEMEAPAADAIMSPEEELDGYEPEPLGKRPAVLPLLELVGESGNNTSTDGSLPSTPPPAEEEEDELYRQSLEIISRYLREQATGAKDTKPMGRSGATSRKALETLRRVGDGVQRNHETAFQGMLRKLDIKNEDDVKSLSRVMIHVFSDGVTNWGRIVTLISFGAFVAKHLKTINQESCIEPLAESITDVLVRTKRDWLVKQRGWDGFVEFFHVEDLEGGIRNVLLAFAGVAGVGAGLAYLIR
Sequence (Q96SW2 whole entry): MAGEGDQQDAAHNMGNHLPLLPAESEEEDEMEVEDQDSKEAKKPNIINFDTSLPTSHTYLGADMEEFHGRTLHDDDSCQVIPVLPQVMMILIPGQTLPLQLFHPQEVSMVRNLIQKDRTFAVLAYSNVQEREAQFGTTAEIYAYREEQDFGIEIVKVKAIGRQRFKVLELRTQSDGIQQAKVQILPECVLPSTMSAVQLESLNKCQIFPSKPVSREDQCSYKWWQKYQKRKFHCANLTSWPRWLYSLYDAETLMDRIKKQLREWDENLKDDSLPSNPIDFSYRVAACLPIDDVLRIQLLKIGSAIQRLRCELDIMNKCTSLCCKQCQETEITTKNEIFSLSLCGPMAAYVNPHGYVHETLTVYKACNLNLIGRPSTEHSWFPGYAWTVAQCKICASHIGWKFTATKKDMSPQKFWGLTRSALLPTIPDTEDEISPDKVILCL
Sequence (Q16531 whole entry partner): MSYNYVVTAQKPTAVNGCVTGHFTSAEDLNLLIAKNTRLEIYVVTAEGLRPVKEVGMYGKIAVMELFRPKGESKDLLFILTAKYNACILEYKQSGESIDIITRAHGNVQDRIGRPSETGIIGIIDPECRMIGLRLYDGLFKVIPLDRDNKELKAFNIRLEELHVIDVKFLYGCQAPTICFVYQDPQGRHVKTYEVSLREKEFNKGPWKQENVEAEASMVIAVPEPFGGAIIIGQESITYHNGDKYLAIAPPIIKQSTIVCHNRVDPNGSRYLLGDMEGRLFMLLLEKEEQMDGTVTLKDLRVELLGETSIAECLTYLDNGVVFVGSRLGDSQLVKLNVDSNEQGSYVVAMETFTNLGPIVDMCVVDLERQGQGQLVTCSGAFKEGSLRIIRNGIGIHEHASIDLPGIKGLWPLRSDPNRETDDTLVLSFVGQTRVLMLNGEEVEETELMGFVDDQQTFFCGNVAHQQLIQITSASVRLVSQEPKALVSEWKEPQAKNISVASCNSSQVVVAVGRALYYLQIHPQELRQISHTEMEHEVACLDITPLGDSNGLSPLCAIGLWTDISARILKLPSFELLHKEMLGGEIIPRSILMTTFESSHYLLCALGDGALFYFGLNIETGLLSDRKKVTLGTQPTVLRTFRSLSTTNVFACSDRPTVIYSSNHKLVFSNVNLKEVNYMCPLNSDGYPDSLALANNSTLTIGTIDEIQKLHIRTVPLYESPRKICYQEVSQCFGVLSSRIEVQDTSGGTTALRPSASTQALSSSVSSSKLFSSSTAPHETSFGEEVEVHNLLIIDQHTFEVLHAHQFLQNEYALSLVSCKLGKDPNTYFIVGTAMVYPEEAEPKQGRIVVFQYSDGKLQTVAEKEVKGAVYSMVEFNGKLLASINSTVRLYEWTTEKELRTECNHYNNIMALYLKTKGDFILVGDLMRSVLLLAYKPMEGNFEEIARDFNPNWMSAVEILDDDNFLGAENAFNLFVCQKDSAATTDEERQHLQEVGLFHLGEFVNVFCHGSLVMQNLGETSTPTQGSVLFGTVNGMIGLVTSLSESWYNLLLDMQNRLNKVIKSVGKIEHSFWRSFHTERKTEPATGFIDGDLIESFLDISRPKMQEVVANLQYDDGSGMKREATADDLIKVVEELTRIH
Experiment: HTRF ternary complex assay
Assay type: binding
Conditions: ternary complex formation; read-out: HTRF ternary complex Average pEC50 by molecule (converted)
Method: The effect of the bifunctional compounds of the invention on the formation of a ternary complex composed of [MCL-1]-[compound of formula (I)]-[CRBN/DDB1] was investigated. […] The read-out was performed with plate reader (Pherastar, BMG Labtech) in time resolved fluorescence mode. […]

In the examples that follow, each entry is paired with its recorded EC50.
Cc1nn(C)c(C)c1-c1c(Cl)ccc2c(CCCOc3cccc4cc(F)ccc34)c(C(=O)O)n(CCCNC(=O)COc3cccc4c3CN(C3CCC(=O)NC3=O)C4=O)c12 (centres unmarked)    < 100 nM
Cc1nn(C)c(C)c1-c1c(Cl)ccc2c(CCCOc3cccc4cc(F)ccc34)c(C(=O)O)n(CCN3CC(N4CCN(c5cc6c(cc5F)C(=O)N(C5CCC(=O)NC5=O)C6=O)CC4)C3)c12 (centres unmarked)    < 10 nM
Cc1nn(C)c(C)c1-c1c(Cl)ccc2c(CCCOc3cccc4cc(F)ccc34)c(C(=O)O)n(CCN3CCN(C(=O)Cn4c(C)nc5c(C(=O)NC6CCC(=O)NC6=O)cccc54)CC3)c12 (centres unmarked)    < 10 nM
Cc1nn(C)c(C)c1-c1c(Cl)ccc2c(CCCOc3cccc4ccc(F)cc34)c(C(=O)O)n(CCN3CCN(C(=O)COc4cccc5c4CN(C4CCC(=O)NC4=O)C5=O)CC3)c12 (centres unmarked)    < 100 nM

We next turn to a different compound, shown below.
Please report EC50 for the following compound: Cc1nn(C)c(C)c1-c1c(Cl)ccc2c(CCCOc3cccc4cc(F)ccc34)c(C(=O)O)n(CCN3CCN(C4CCN(c5cc6c(cc5F)C(=O)N(C5CCC(=O)NC5=O)C6=O)CC4)CC3)c12 (centres unmarked)
< 10 nM

###

system: iCELL Cardiomyocytes; test: Cardiac safety: caspase 3 and 7 activation (Caspase-Glo 3/7) in iCELL Cardiomyocytes; type: cell-based; details: as opposed to reference compound AZD5991
readout.name: activity in caspase activity assay in cardiomyocytes

Cc1nn(C)c(C)c1-c1c(Cl)ccc2c(CCCOc3cccc4ccccc34)c(C(=O)O)n(CCN3CCN(C(=O)COc4cccc5c4C(=O)N(C4CCC(=O)NC4=O)C5=O)CC3)c12 (stereo not shown)    little to no activity
Cc1nn(C)c(C)c1-c1c(Cl)ccc2c(CCCOc3cccc4ccccc34)c(C(=O)O)n(CCN3CCN(C(=O)COc4cccc5c4CN(C4CCC(=O)NC4=O)C5=O)CC3)c12 (stereo not shown)    little to no activity
Cc1nn(C)c(C)c1-c1c(Cl)ccc2c(CCCOc3cccc4cc(F)ccc34)c(C(=O)O)n(CCN3CCN(C(=O)COc4cccc5c4C(=O)N(C4CCC(=O)NC4=O)C5=O)CC3)c12 (stereo not shown)    little to no activity
Cc1nn(C)c(C)c1-c1c(Cl)ccc2c(CCCOc3cccc4ccccc34)c(C(=O)O)n(CCN3CCN(C(=O)Cn4c(C)nc5c(C(=O)NC6CCC(=O)NC6=O)cccc54)CC3)c12 (stereo not shown)    little to no activity

###

biological target: [MCL-1]-[compound of formula (I)]-[CRBN/DDB1] complex (Homo sapiens, UniProt Q07820+Q96SW2); experiment: AlphaLISA dose response ternary complex formation assay; format: binding; conditions: read-out: AlphaLISA dose response Average pEC50 by molecule (converted)
readout.name: EC50

Cc1cc(OCCCc2c(C(=O)O)n(CCN3CCN(C(=O)CNc4cccc5c4C(=O)N(C4CCC(=O)NC4=O)C5=O)CC3)c3c(-c4c(C)nn(C)c4C)cccc23)cc(C)c1Cl (stereo not drawn) [Compound 233]    < 1000 nM

Please report EC50 for the following compound: Cc1cc(OCCCc2c(C(=O)O)n(CCN3CCN(C(=O)CCOCCOCCOCCOCCOCCOCCNc4cccc5c4C(=O)N(C4CCC(=O)NC4=O)C5=O)CC3)c3c(-c4c(C)nn(C)c4C)c(Cl)ccc23)cc(C)c1Cl (stereo not drawn) [Compound 203]
< 100 nM

Please report EC50 for the following compound: Cc1cc(OCCCc2c(C(=O)O)n(C)c3c(-c4c(C)nn(CCCOCCOCCNc5cccc6c5C(=O)N(C5CCC(=O)NC5=O)C6=O)c4C)cccc23)cc(C)c1Cl (stereo not drawn) [Compound 227]
< 1000 nM

###

target: MCL-1 protein (Homo sapiens, UniProt Q07820); assay: DMS 114 cells: MCL-1 protein degradation, Western blot; assay type: cell-based; design: endogenous in cells; conditions: DMS 114 cell line, 6 h treatment, 1 μM compound, vs DMSO
Sequence (Q07820 whole entry): as the sequence (Q07820 whole entry) above
readout.name: Western blot, % of protein reduction

In the examples that follow, each entry is paired with its recorded Western blot, % of protein reduction.
Cc1nn2c(c1-c1c(Cl)ccc3c(CCCOc4cccc5cc(F)ccc45)c(C(=O)O)n(CCN4CCN(C(=O)COc5cccc6c5CN(C5CCC(=O)NC5=O)C6=O)CC4)c13)COCC2 (stereo not shown)    ≥75%
Cc1nn(C)c(C)c1-c1c(Cl)ccc2c(CCCOc3cccc4cc(F)ccc34)c(C(=O)O)n(CCN3CCN(C(=O)COc4cccc5c4CN(C4CCC(=O)NC4=O)C5=O)CC3)c12 (stereo not shown)    ≥75%
Cc1nn(C)c(C)c1-c1c(Cl)ccc2c(CCCOc3cccc4ccccc34)c(C(=O)O)n(CCN3CCN(C(=O)COc4cccc5c4C(=O)N(C4CCC(=O)NC4=O)C5=O)CC3)c12 (stereo not shown)    ≥50%

We next turn to a different compound, shown below.
Please report Western blot, % of protein reduction for the following compound: Cc1nn(C)c(C)c1-c1c(Cl)ccc2c(CCCOc3cccc4cc(F)ccc34)c(C(=O)O)n(CCN3CCN(C(=O)Cn4c(C)nc5c(C(=O)NC6CCC(=O)NC6=O)cccc54)CC3)c12 (stereo not shown)
≥75%

###

Target: [MCL-1]-[compound of formula (I)]-[CRBN/DDB1] complex (Homo sapiens, UniProt Q07820+Q96SW2)
Assay: AlphaLISA dose response ternary complex formation assay
Assay type: binding
Conditions: read-out: AlphaLISA dose response Average pEC50 by molecule (converted)
Experimental: The effect of the bifunctional compounds of the invention on the formation of a ternary complex composed of [MCL-1]-[compound of formula (I)]-[CRBN/DDB1] was investigated with two methods: AlphaLISA dose response assay or HTRF ternary complex assay. […] The read-out was performed with PerkinElmer Enspire Multimode Plate Reader (method for AlphaLISA 384-well low volume, Filterset: λexc=680 nm, λem=615 nm). […]
This section presents compounds with their documented EC50 values.

COc1cc(C(=O)NC2CCC(=O)NC2=O)c2nc(C)n(CC(=O)N3CCN(CCn4c(C(=O)O)c(CCCOc5cccc6cc(F)ccc56)c5ccc(Cl)c(-c6c(C)nn(C)c6C)c54)CC3)c2c1 (stereo not shown)    < 100 nM
Cc1nn(C)c(C)c1-c1c(Cl)ccc2c(CCCOc3cccc4ccccc34)c(C(=O)O)n(CCN3CCN(C(=O)COc4cccc5c4C(=O)N(C4CCC(=O)NC4=O)C5=O)CC34CC4)c12 (stereo not shown)    < 100 nM
Cc1cc(C(=O)NC2CCC(=O)NC2=O)c2nc(C)n(CC(=O)N3CCN(CCn4c(C(=O)O)c(CCCOc5cccc6cc(F)ccc56)c5ccc(Cl)c(-c6c(C)nn(C)c6C)c54)CC3)c2c1 (stereo not shown)    < 10 nM

Please report EC50 for the following compound: Cc1nn(C)c(C)c1-c1c(Cl)ccc2c(CCCOc3cccc4cc(F)ccc34)c(C(=O)O)n(CCCNC(=O)Cn3c(C)nc4c(C(=O)NC5CCC(=O)NC5=O)cccc43)c12 (stereo not shown)
< 100 nM

Please report EC50 for the following compound: COc1ccc(C(=O)NC2CCC(=O)NC2=O)c2nc(C)n(CC(=O)N3CCN(CCn4c(C(=O)O)c(CCCOc5cccc6cc(F)ccc56)c5ccc(Cl)c(-c6c(C)nn(C)c6C)c54)CC3)c12 (stereo not shown)
< 100 nM

Please report EC50 for the following compound: Cc1nn(C)c(C)c1-c1c(Cl)ccc2c(CCCOc3cccc4ccccc34)c(C(=O)O)n(CCN3CCC(NC(=O)COc4cccc5c4CN(C4CCC(=O)NC4=O)C5=O)CC3)c12 (stereo not shown)
< 100 nM

Please report EC50 for the following compound: Cc1nn(C)c(C)c1-c1c(Cl)ccc2c(CCCOc3cccc4cc(F)ccc34)c(C(=O)O)n(CCCCCN(C)C(=O)COc3cccc4c3CN(C3CCC(=O)NC3=O)C4=O)c12 (stereo not shown)
< 100 nM

Please report EC50 for the following compound: Cc1nn2c(c1-c1c(Cl)ccc3c(CCCOc4cccc5cc(F)ccc45)c(C(=O)O)n(CCN4CCN(C(=O)COc5cccc6c5CN(C5CCC(=O)NC5=O)C6=O)CC4)c13)COCC2 (stereo not shown)
< 100 nM

Please report EC50 for the following compound: Cc1nn(C)c(C)c1-c1c(Cl)ccc2c(CCCOc3cccc4cc(F)ccc34)c(C(=O)O)n(CCN3CCN(CCOc4cccc5c4C(=O)N(C4CCC(=O)NC4=O)C5=O)CC3)c12 (stereo not shown)
< 10 nM

// data source = patent US20240294499A1
